Entries and their measured remaining activity at 20 µM follow.
tested-on: PCSK9 (Homo sapiens, UniProt Q8NBP7)
Construct: host or cells: added to HepG2, HuH7, FL83B or shPCSK9 knockdown lines
Sequence (Q8NBP7 153-692): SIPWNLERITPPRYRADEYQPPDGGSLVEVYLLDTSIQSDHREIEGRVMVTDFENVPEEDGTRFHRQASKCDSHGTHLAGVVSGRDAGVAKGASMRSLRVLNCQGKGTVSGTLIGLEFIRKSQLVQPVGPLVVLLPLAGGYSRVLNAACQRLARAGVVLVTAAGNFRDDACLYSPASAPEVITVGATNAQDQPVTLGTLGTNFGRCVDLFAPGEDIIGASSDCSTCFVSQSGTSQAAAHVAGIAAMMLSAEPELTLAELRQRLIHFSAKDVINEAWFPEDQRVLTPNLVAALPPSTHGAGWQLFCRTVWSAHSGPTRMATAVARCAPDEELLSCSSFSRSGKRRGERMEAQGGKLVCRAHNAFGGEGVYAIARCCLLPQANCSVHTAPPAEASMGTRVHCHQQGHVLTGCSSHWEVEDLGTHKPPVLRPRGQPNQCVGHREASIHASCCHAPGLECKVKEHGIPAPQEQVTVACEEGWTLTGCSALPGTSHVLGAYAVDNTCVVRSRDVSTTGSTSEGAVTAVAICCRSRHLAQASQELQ
assay-summary: Cellular DiI-LDL uptake analysis (LDL-uptake assay)
Format: cell-based
recorded-conditions: percentage uptake of DiI-LDL over the control at 20 uM concentration

INSERT INTO results (cpd_smiles, reported_measurement) VALUES
  ('O=S(=O)(c1ccc(C2CCNCC2)c2ccccc12)C1CCNCC1', '> 150%'),
  ('c1ccc2c(N3CCNCC3)ccc(NC3CCNCC3)c2c1', '< 100%'),
  ('O=S(=O)(c1ccc(N2CCNCC2)c2ccccc12)C1CCNCC1', '> 150%'),
  ('O=C(c1ccc(N2CCNCC2)c2ccccc12)N1CCNCC1', '> 150%'),
  ('c1ccc2c(N3CCNCC3)ccc(OC3CCNCC3)c2c1', '> 150%'),
  ('O=S(=O)(Nc1ccccc1)c1ccc(N2CCNCC2)c2ccccc12', '100 to 150%');

With those in mind, consider the next compound.
IN: May I ask what remaining activity at 20 µM has been recorded for Cc1ccc(C2CCNCC2)c2ccccc12 ?
OUT: > 150%

====

tested-on: PCSK9 (Homo sapiens)
Construct: host or cells: added to HepG2, HuH7, FL83B or shPCSK9 knockdown lines
assay-summary: LDLR flow cytometric analysis (LDL-R assay)
Format: cell-based
recorded-conditions: percentage recovery in the LDL-R assay at 20 uM concentration
readout: LDL-R % Recovered

Solved entries (count: 5):
INSERT INTO results (cpd_smiles, reported_measurement) VALUES
  ('O=C(c1ccc(N2CCNCC2)c2ccccc12)N1CCNCC1', '+ (0-10% recovery)'),
  ('NC(=O)N1CCN(c2cccc3ccccc23)CC1', '+ (0-10% recovery)'),
  ('c1ccc2c(N3CCNCC3)ccc(OC3CCNCC3)c2c1', '+ (0-10% recovery)'),
  ('Cc1ccc(C2CCNCC2)c2ccccc12', '++ (10-30% recovery)'),
  ('c1ccc2c(N3CCNCC3)ccc(NC3CCNCC3)c2c1', '++ (10-30% recovery)');

IN: Reported LDL-R % Recovered for c1ccc2c(N3CCNCC3)cccc2c1 : what is it?
OUT: ++ (10-30% recovery)

IN: O=S(=O)(Nc1ccccc1)c1ccc(N2CCNCC2)c2ccccc12 ?
OUT: + (0-10% recovery)

IN: And the next one, O=S(=O)(c1ccc(C2CCNCC2)c2ccccc12)C1CCNCC1 ?
OUT: + (0-10% recovery)

IN: Queued: O=S(=O)(c1ccc(N2CCNCC2)c2ccccc12)C1CCNCC1
OUT: + (0-10% recovery)
